Test: Viability qHTS for spleen associated tyrosine kinase inhibitor (SYKi) drug resistant MV4-11 cells (AID 1963824); further: nearly all actives have a fitted effect of over 35% in size; further: potency means the concentration at half of the fitted maximal effect
Settings: SYKi-resistant MV4-11 viability, CellTiter-Glo, 72 h; series mostly up to 45 µM
Records with an inconclusive call do not appear. Active and inactive are the calls of the source. The call rests on the fitted dose curve; in most records, active means well fitted cell-killing curve with a large enough effect; inconclusive means small, poorly fitted or top-dose-only effect, or effect the other way; inactive means no such curve, though single readings can be large or run the other way.
valueKind: Potency

[[record]]
compound = "C[C@]12C=CC(=O)C=C1[C@@H](F)C[C@@H]1[C@@H]2[C@@H](O)C[C@@]2(C)[C@H]1CC[C@]2(O)C(=O)CO"
recordedmeasurement = "inactive"

[[record]]
compound = "Cc1ccc2c(n1)Oc1ccc(C(C)C(=O)OCC(=O)N(C)C)cc1C2 (stereo not given)"
recordedmeasurement = "inactive"

[[record]]
compound = "CN(C)c1ccc2c(c1)OC(N)=C(C#N)C2c1cccc(C(F)(F)F)c1 (stereo not given)"
recordedmeasurement = "0.184 µM (active)"

[[record]]
compound = "CCNC(=O)Nc1ccc2ncc(Nc3ccc(C)cc3)nc2n1"
recordedmeasurement = "inactive"


Now consider the entry below.
INPUT: Can you share its Potency? I mean this compound: CCCS(=O)(=O)Nc1ccc(F)c(C(=O)c2c[nH]c3ncc(Cl)cc23)c1F
OUTPUT: 11.8 µM (active)

###

Assay: Viability qHTS for spleen associated tyrosine kinase inhibitor (SYKi) naive MV4-11 cells (AID 1963823); further: nearly all actives have a fitted effect of over 40% in size; further: potency means the concentration at half of the fitted maximal effect
Details: MV4-11 AML viability, CellTiter-Glo luminescence, 72 h; series mostly up to 45 µM
Records with an inconclusive call do not appear. Active and inactive are the calls of the source. Calls come from the whole dose curve; as a rule, active = well fitted cell-killing curve with a large enough effect; inconclusive = small, poorly fitted or top-dose-only effect, or effect the other way; inactive = no such curve, though single readings can be large or run the other way.
valueKind: Potency

These recorded examples may help you get a feel for the data.
[[record]]
molecule = "C=C1[C@H](OC(=O)/C=C(\\C)CC)C[C@@H](C(C)C)[C@@H]2[C@H]([C@@H](C)OC(C)=O)C(=O)C[C@@H]12"
valuekind = "Potency"
recordedmeasurement = "14.8 µM (active)"

[[record]]
molecule = "CN(C)CCCOc1nn(Cc2ccccc2)c2ccccc12"
valuekind = "Potency"
recordedmeasurement = "inactive"

[[record]]
molecule = "CC(C)=CC/C=C(\\C)[C@H]1CC[C@]2(C)[C@@H]1[C@H](O)C[C@@H]1[C@@]3(C)CC[C@H](O)C(C)(C)[C@@H]3[C@@H](O[C@@H]3O[C@H](CO)[C@@H](O)[C@H](O)[C@H]3O)C[C@]12C"
valuekind = "Potency"
recordedmeasurement = "inactive"

[[record]]
molecule = "CN=C(NC#N)NCCSCc1csc(N=C(N)N)n1"
valuekind = "Potency"
recordedmeasurement = "inactive"

[[record]]
molecule = "C=C1C2CCC3CC2(CC(O)C2(O)C1CC(OC1OC(CO)C(O)C(O)C1O)C2(C)C)CC3(C)O (configuration not stated)"
valuekind = "Potency"
recordedmeasurement = "inactive"


Now consider the entry below.
INPUT: Can you share its Potency? I mean this molecule: C[C@@H](N)c1ccc(C(=O)Nc2ccnc3[nH]ccc23)cc1
OUTPUT: 4.17 µM (active)

###

Assay: Quantitative highthroughput screen to assess conditional lethalithy of P12 Ichikawa cells grown in RPMI1640 with dialyzed fetal bovine serum (RPMI+ds) (AID 1963880); further: nearly all actives have a fitted effect of over 35% in size
Settings: ATP luminescence, 48 h; P12-Ichikawa viability; series mostly up to 45.8 µM
Records with an inconclusive call do not appear. Calls of active or inactive are those of the source. Calls come from the whole dose curve; as a rule, active = well fitted cell-killing curve with a large enough effect; inconclusive = small, poorly fitted or top-dose-only effect; inactive = flat fitted curve, though single readings scatter.
Select the correct class. Options are True = active, False = inactive and nothing else.

Worked examples, 8 compounds total:
[[record]]
compound = "Nc1[nH]c(=O)ncc1F"
labelvalue = "False"

[[record]]
compound = "COCCCOc1ccnc(CS(=O)c2nc3ccccc3[nH]2)c1C (centres undefined)"
labelvalue = "False"

[[record]]
compound = "CCCCCCCc1ccc(CCc2cccc(O)c2C(=O)O)cc1"
labelvalue = "False"

[[record]]
compound = "CCN(CC)CCNC(=O)c1ccc2nc(-c3ccccc3)c(-c3ccc(CN4CCC(n5c(=O)[nH]c6ccccc65)CC4)cc3)nc2c1"
labelvalue = "True"

[[record]]
compound = "COc1ccc(-c2oc3c(CC=C(C)C)c(O)cc(O)c3c(=O)c2O)cc1"
labelvalue = "False"

[[record]]
compound = "NC(=O)[C@H]1CCS[C@@H]2C[C@]3(CCCN3C(=O)Cc3ccc(NC(=O)COc4ccc(Cl)cc4Cl)cc3)C(=O)N12"
labelvalue = "True"

[[record]]
compound = "COc1cc2c(Nc3ccc(Cl)c(Cl)c3F)ncnc2cc1OCC1C[C@@H]2CN(C)C[C@H]2C1"
labelvalue = "True"

[[record]]
compound = "O=c1[nH]c(=O)n([C@H]2C[C@@H](O)[C@@H](CO)O2)cc1C=CBr"
labelvalue = "False"


INPUT: Check the results log: what was the call for Cc1nc(Nc2n[nH]c3c2CN(C(=O)N[C@H](CN(C)C)c2ccccc2)C3(C)C)c2sccc2n1 ?
OUTPUT: True

INPUT: Check the results log: what was the call for CN[C@@H]1CN(c2ccc3c(=O)c(C(=O)O)cn(-c4nccs4)c3n2)C[C@@H]1OC ?
OUTPUT: True

INPUT: Check the results log: what was the call for Cc1cc2cc3c(C)cc(=O)oc3c(C)c2o1 ?
OUTPUT: False

###

Test: Cellular viability qHTS for adrenocortical cancer (ACC) cell line SW-13 (AID 1963989); further: potency means the concentration at half of the fitted maximal effect; nearly all actives have a fitted effect of over 65% in size
Conditions: SW-13 ACC cells viability, CellTiter-Glo, 48 h
Inconclusive results are not listed. Calls of active or inactive are those of the source. Calls follow the shape of the dose curve; as a rule, active = well fitted cell-killing curve with a large enough effect; inconclusive = small, poorly fitted or top-dose-only effect; inactive = flat fitted curve, though single readings scatter.
Items are presented alongside their recorded Potency.

These recorded examples may help you get a feel for the data.
[[record]]
molecule = "COc1cc(C(=O)NC2CCN(C)CC2)ccc1Nc1ncc2c(n1)N(C1CCCC1)CCC(=O)N2C(C)C"
recordedmeasurement = "25.1 µM (active)"

[[record]]
molecule = "Cc1cc(Nc2cc(CN3CCOCC3)c3nc(C)c(Cc4ccc(Cl)cc4F)n3n2)n[nH]1"
recordedmeasurement = "2.51 µM (active)"

[[record]]
molecule = "N#CNC(=NCCCCCCOc1ccc(Cl)cc1)Nc1ccncc1"
recordedmeasurement = "0.0398 µM (active)"

[[record]]
molecule = "C=CC(=O)Nc1cccc(Oc2nc(Nc3ccc(N4CCN(C)CC4)c(F)c3)nc3[nH]ccc23)c1"
recordedmeasurement = "2.82 µM (active)"


INPUT: Can you share its Potency? I mean this molecule: N#Cc1c(C2CCNCC2)cc(-c2c(O)cccc2OCC2CC2)nc1N
OUTPUT: 28.2 µM (active)

INPUT: Can you share its Potency? I mean this molecule: O=C(O)c1ccc2c(c1)nc(Nc1cccc(Cl)c1)c1ccncc12
OUTPUT: 3.55 µM (active)

INPUT: Can you share its Potency? I mean this molecule: CC(N[C@H]1CCCC[C@H]1NC(=O)c1ccc(Cl)cc1)c1cccc2ccccc12 (some centres not stated)
OUTPUT: 25.1 µM (active)

###

Experiment: Quantitative highthroughput screen to assess conditional lethalithy of NOMO1 cells grown in RPMI1640 with untreated serum (RPMI+s) (AID 1963876); further: nearly all actives have a fitted effect of over 35% in size
Conditions: NOMO1 AML cells in RPMI+serum, CellTiter-Glo viability, 48 h; series mostly up to 45.8 µM
Procedure: Assay Provider: Jason Cantor Ph.D. Department of Biochemistry University of Wisconsin-Madison, Madison, WI, USA Chemical screening studies have identified drug sensitivities across hundreds of cancer cell lines but most putative therapeutics fail to translate. […] Sets of conditional anticancer compounds spanned phases of clinical development and included non-oncology drugs were assessed. […] 6; Detection; Luminescence, Viewlux PerkinElmer. […]
Inconclusive results are not listed. The source made the active and inactive calls. Calls come from the whole dose curve; as a rule, active = well fitted cell-killing curve with a large enough effect; inconclusive = small, poorly fitted or top-dose-only effect; inactive = flat fitted curve, though single readings scatter.
Select the correct class. Options are active, inactive and nothing else.

INPUT: Check the results log: what was the call for NC(=O)c1ncn([C@@H]2O[C@H](CO)[C@@H](O)[C@@H]2O)c1O ?
OUTPUT: inactive

###

Assay: Cellular viability qHTS for adrenocortical cancer (ACC) cell line SW-13 (AID 1963989); further: potency means the concentration at half of the fitted maximal effect; nearly all actives have a fitted effect of over 65% in size
Conditions: SW-13 ACC cells viability, CellTiter-Glo, 48 h
Inconclusive results are not listed. Active and inactive are the calls of the source. The call rests on the fitted dose curve; in most records, active means well fitted cell-killing curve with a large enough effect; inconclusive means small, poorly fitted or top-dose-only effect; inactive means flat fitted curve, though single readings scatter.
valueKind: Potency

[[record]]
structureassmiles = "O=c1[nH]nc(Sc2ncc([N+](=O)[O-])s2)n1-c1ccc2c(c1)OCCO2"
recordedmeasurement = "17.8 µM (active)"

[[record]]
structureassmiles = "O=C(Nc1ccnc(NC(=O)C2CC2)c1)c1c(Cl)cccc1Cl"
recordedmeasurement = "15.8 µM (active)"


INPUT: Can you share its Potency? I mean this compound: CCN1CCN(Cc2ccc(NC(=O)Nc3ccc(Oc4cc(NC)ncn4)cc3)cc2C(F)(F)F)CC1
OUTPUT: 3.98 µM (active)

###

Experiment: Quantitative highthroughput screen to assess conditional lethalithy of NOMO1 cells grown in RPMI1640 with untreated serum (RPMI+s) (AID 1963876); further: nearly all actives have a fitted effect of over 35% in size
Conditions: NOMO1 AML cells in RPMI+serum, CellTiter-Glo viability, 48 h; series mostly up to 45.8 µM
Inconclusive results are not listed. Calls of active or inactive are those of the source. The call rests on the fitted dose curve; in most records, active means well fitted cell-killing curve with a large enough effect; inconclusive means small, poorly fitted or top-dose-only effect; inactive means flat fitted curve, though single readings scatter.
Select the correct class. Options are True = active, False = inactive and nothing else.

Worked examples, 2 compounds total:
[[record]]
compound = "CCN1CCCC1CNC(=O)c1cc(S(N)(=O)=O)ccc1OC (stereo not drawn)"
labelvalue = "False"

[[record]]
compound = "CCCCCCCCCCCC1=C(O)C(=O)C=C(O)C1=O"
labelvalue = "True"


Now examine the next entry.
INPUT: Check the results log: what was the call for CC(N[C@H]1CCCC[C@H]1NC(=O)c1ccc(Cl)cc1)c1cccc2ccccc12 (stereo partly drawn) ?
OUTPUT: True
